FYI, the data here is from PubChem BioAssay AID1159580.

assay: chemical genetic growth profiling, strain panel (AID 1159580);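 further: tested at 20 µM; growth read once vehicle control cultures reached saturation at 30 °C; 1 = growth at the plate median or of vehicle wells; lower values mean less growth of the strain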; conditions: S. cerevisiae deletion strains, growth OD, locus YML120C, strain ndi1, hits give low values
The campaign covered roughly 5,500 compounds. About 2,000 (36%) were called active. Roughly 18% stayed inconclusive and do not appear here. The list shows a part of the results.
measured_property: normalized growth
# print the numeric value only

[[record]]
compound = "C=CCc1ccc(O)c(OC)c1"
measured_property = "normalized growth"
readout_number = 1.03

[[record]]
compound = "CN1C2CCC1CC(OC(c1ccccc1)c1ccccc1)C2 (stereo unspecified)"
measured_property = "normalized growth"
readout_number = 0.985


Query string: normalized growth lookup needed for COC(=O)C1=COC(OC2OC(CO)C(O)C(O)C2O)C2C(C)CC(=O)C12 (stereo unspecified) , thanks.
Result string: 1.03

Query string: Follow-up entry: CN1C2CCC1CC(OC(c1ccccc1)c1ccccc1N)C2 (stereo unspecified)
Result string: 0.988

Query string: Also check O=C1CCC(N2C(=O)c3ccccc3C2=O)C(=O)N1 (stereo unspecified)
Result string: 1.04

---

assay: chemical genetic growth profiling, strain panel (AID 1159580);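 further: tested at 20 µM; growth read once vehicle control cultures reached saturation at 30 °C; 1 = growth at the plate median or of vehicle wells; lower values mean less growth of the strain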; details: S. cerevisiae deletion strains, growth OD, locus YOR083W, strain WHI5 (second series)
Out of some 5,500 compounds screened, about 2,000 (36%) were called active. Another 18% or so got no clear call; they are omitted. Cut-off read from the data, not from the text of the source: active = normalized growth mostly below about 0.91 (no sharp cut-off); inconclusive = no clear call, values can overlap the other calls; inactive = mostly above about 0.92. This is one part of the list.
Result category, one only: active, inactive

[[record]]
compound = "COc1ccc(C2CNC(=O)C2)cc1OC1CCCC1 (centres undefined)"
class_assignment = "inactive"

[[record]]
compound = "Nc1ncnc2c1ncn2C1OC2COP(O)(=S)O[C@@H]2[C@@H]1O (some centres undefined)"
class_assignment = "inactive"

[[record]]
compound = "Cc1ccc(S(=O)(=O)NC(=O)NN2CCCCCC2)cc1"
class_assignment = "inactive"

[[record]]
compound = "CN(C)CCN(Cc1cccs1)c1ccccn1"
class_assignment = "inactive"


--- query ---
Query string: Query: recorded result category for O=[N+]([O-])c1ccc(O[C@@H]2O[C@H](CO)[C@@H](O)[C@H](O)[C@H]2F)c([N+](=O)[O-])c1 in this test
Result string: inactive

---

test: chemical genetic growth profiling, strain panel (AID 1159580);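 further: tested at 20 µM; growth read once vehicle control cultures reached saturation at 30 °C; 1 = growth at the plate median or of vehicle wells; lower values mean less growth of the strain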; details: S. cerevisiae deletion strains, growth OD, locus YLR027C, strain aat2
Among all 5,500 compounds or so, about 2,000 (36%) were called active. About 18% were inconclusive and are not listed. Rule as the data show it: active = normalized growth mostly below about 0.91 (no sharp cut-off); inconclusive = no clear call, values can overlap the other calls; inactive = mostly above about 0.92. Some of the results follow.
Result category, one only: y = active, n = inactive

Query string: Identify the outcome logged in this assay for the molecule shown: CC(=O)O[C@H]1C[C@@H](OC(C)=O)C(C)(C)C2CC(=O)[C@]3(C)C(CC[C@@]4(C)[C@H](C(=O)O)OC(=O)C5OC543)[C@]21C (some centres undefined)
Result string: n

Query string: Follow-up entry: C=CCc1ccc(OC)cc1
Result string: n

Query string: Could you do the same for CCCc1cc(C(N)=S)ccn1 , please?
Result string: n

Query string: O=C(NC(=O)c1ccccc1Cl)Nc1ccc(OC(F)(F)F)cc1 ?
Result string: n

Query string: Repeat with C=CCc1ccc(O)c(OC)c1
Result string: n

Query string: Next: CCN(CC)Cc1ccc(Nc2ccnc3cc(Cl)ccc23)cc1O
Result string: n

Query string: Repeat for the following molecule: CC[C@@]1(O)C[C@H](O[C@H]2C[C@H](N(C)C)[C@H](O)[C@H](C)O2)c2c(cc3c(c2O)C(=O)c2c(O)ccc(O)c2C3=O)[C@H]1C(=O)OC
Result string: n

Query string: Check CC[C@@]1(O)C[C@H](O)c2c(cc3c(c2O)C(=O)c2c(O)ccc(O)c2C3=O)[C@H]1C(=O)OC too.
Result string: y

Query string: Further, for CC[C@@]1(O)C[C@H](O[C@H]2C[C@H](N(C)C)[C@H](O)[C@H](C)O2)c2c(cc3c(c2O)C(=O)c2c(O)cccc2C3=O)[C@H]1C(=O)OC ?
Result string: y
